Give PDI for every item shown.
- ASSAY PROCEDURE: Diameter and PDI from DLS measurements of mRNA nanoparticles with lipid amines
- Assay type: physicochemical
- CONDITION SUMMARY: CFTR mRNA nanoparticle with lipid amine
- Description: Lipids are dissolved in ethanol at a concentration of 24 mg/mL and molar ratios of 49.0:11.2:39.3:0.5 (IL1:DSPC:cholesterol:PEG-DMG-2K) and mixed with the acidification buffer (45 mM acetate buffer at pH 4). The lipid solution and acidification buffer are mixed using a multi-inlet vortex mixer at a 3:7 volumetric ratio of lipid:buffer for mixer 1 and mixer 2 and a 1:3 volumetric ratio of lipid:buffer (25% ethanol) for mixer 3. […]
Structures can show the parent of a compound that is named as a salt.
Write the value as a bare number.

## Input # lookup: PDI of CC[C@H](CC[C@@H](C)[C@H]1CC[C@H]2[C@@H]3CC=C4C[C@@H](OC(=O)CCCC(=O)N(CCCCNCCC(C)N)CCC(C)N)CC[C@]4(C)[C@H]3CC[C@]12C)C(C)C.Cl.Cl.Cl (stereo partly drawn) [SA136]
## Output 0.13

## Input Given the compound CCC(N)(CC)CCNCCCCN(CCC(N)(CC)CC)C(=O)O[C@H]1CC[C@@]2(C)C(=CC[C@H]3[C@@H]4CC[C@H]([C@H](C)CCCC(C)C)[C@@]4(C)CC[C@@H]32)C1.Cl.Cl.Cl [SA133] , what is its reported PDI?
## Output 0.11

## Input Value lookup for PDI; key = CC(C)CCC[C@@H](C)[C@H]1CC[C@H]2[C@@H]3CC=C4C[C@@H](OC(=O)C(=O)N(CCCN)CCCCNCCCN)CC[C@]4(C)[C@H]3CC[C@]12C [SA66, trihydrochloride]
## Output 0.13

Hello, the source for this data is patent US20260109732A1, in case you need it.
